- TARGET SYSTEM: human HSD17B13 (Homo sapiens)
- Sequence (Q7Z5P4 20-300): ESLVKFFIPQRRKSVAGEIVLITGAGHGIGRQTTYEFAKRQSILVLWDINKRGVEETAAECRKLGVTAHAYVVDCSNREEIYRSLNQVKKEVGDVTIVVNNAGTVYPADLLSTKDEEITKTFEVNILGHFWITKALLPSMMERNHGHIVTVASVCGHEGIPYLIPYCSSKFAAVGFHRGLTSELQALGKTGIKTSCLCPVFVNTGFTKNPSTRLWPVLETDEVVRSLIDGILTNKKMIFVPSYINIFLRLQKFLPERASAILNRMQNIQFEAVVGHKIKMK
- EXPERIMENTAL DETAILS: Substrate screening of steroid and bioactive lipid libraries against purified recombinant HSD17B13 (NADH-linked luciferase assay)
- Type: biochemical
- DETAILS: Bioactive Lipid Library, 5 μM bioactive lipid (Estradiol Control 50 μM), 500 μM NAD+, 100 ng enzyme, 3 hours at 23° C.
Where a name gives a salt, the structure may show the parent alone.
OBSERVATION TYPE: HSD17B13 Enzymatic Activity Relative Light Units (RLU)
Form entry: value (RLU) — number only.

Query (compound): `CCCCC[C@H](O)C/C=C1/C(=O)C=C[C@@H]1C/C=C\CCCC(=O)O` ; field requested: HSD17B13 Enzymatic Activity Relative Light Units
343320

Request: CCCCC[C@H](O)/C=C/[C@@H]1[C@@H](CC(=O)CCC(=O)O)[C@@H](O)C[C@H]1O [(sodium salt)]
341800

Request: CCCCC/C=C\C=C\[C@H](O)CCCCCCCCCC(=O)O [11(R)-HEDE]
1674200
